Give remaining activity at 0.1 µM for every item shown.
- testSystem: VHL30 (Homo sapiens)
- Sequence (P40337 whole entry): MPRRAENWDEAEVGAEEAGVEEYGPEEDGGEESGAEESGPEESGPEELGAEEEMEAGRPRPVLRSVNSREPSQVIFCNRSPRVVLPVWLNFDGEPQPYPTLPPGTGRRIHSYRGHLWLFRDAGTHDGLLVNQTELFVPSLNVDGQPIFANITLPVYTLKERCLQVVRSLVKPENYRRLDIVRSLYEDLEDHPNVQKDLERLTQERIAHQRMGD
- runDescription: Immunoblotting (western blot) quantification of VHL30 levels in MM.1S cells
- conditionParameters: MM1.S, 16 h, read-out: %remaining protein VHL30
Please state the figure in %; there is no need to write the unit.

According to the records, this molecule CN[C@@H](C)C(=O)N[C@H](C(=O)N1C[C@@H](Oc2cccc(OCCCCOCCCCOc3cc(-c4scnc4C)ccc3CNC(=O)[C@@H]3C[C@@H](O)CN3C(=O)[C@H](C(C)C)N3Cc4ccccc4C3=O)c2)C[C@H]1C(=O)N[C@@H]1CCCc2ccccc21)C1CCCCC1 [PROTAC 14] displays remaining activity at 0.1 µM of 39

According to the records, this molecule CN[C@@H](C)C(=O)N[C@H](C(=O)N1C[C@@H](Oc2cccc(OCCOCCOCCOCCOc3cc(-c4scnc4C)ccc3CNC(=O)[C@@H]3C[C@@H](O)CN3C(=O)[C@H](C(C)C)N3Cc4ccccc4C3=O)c2)C[C@H]1C(=O)N[C@@H]1CCCc2ccccc21)C1CCCCC1 [PROTAC 16] displays remaining activity at 0.1 µM of 41

According to the records, this molecule CN[C@@H](C)C(=O)N[C@H](C(=O)N1C[C@@H](Oc2cccc(OCCCCCCOCCCCCCOCCOc3cc(-c4scnc4C)ccc3CNC(=O)[C@@H]3C[C@@H](O)CN3C(=O)[C@H](C(C)C)N3Cc4ccccc4C3=O)c2)C[C@H]1C(=O)N[C@@H]1CCCc2ccccc21)C1CCCCC1 [PROTAC 17] displays remaining activity at 0.1 µM of 81

According to the records, this molecule CN[C@@H](C)C(=O)N[C@H](C(=O)N1C[C@@H](Oc2cccc(OCCCCCCOCCCCCOCCCCC(=O)N[C@H](C(=O)N3C[C@H](O)C[C@H]3C(=O)NCc3ccc(-c4scnc4C)cc3)C(C)(C)C)c2)C[C@H]1C(=O)N[C@@H]1CCCc2ccccc21)C1CCCCC1 [PROTAC 7] displays remaining activity at 0.1 µM of 83

====

- runDescription: Log D7.4 measurement by chromatographic (fast-gradient HPLC) method
- conditionParameters: pH 7.4
measurementKind: chromatographic logD
Form rule: numeric answer, no unit written next to it.

According to the records, this compound CN[C@@H](C)C(=O)N[C@H](C(=O)N1C[C@@H](Oc2cccc(OCCCCOCCCCNc3cccc4c3C(=O)N(C3CCC(=O)NC3=O)C4=O)c2)C[C@H]1C(=O)N[C@@H]1CCCc2ccccc21)C1CCCCC1 (stereo partly shown) displays chromatographic logD of 4.9

According to the records, this compound CN[C@@H](C)C(=O)N[C@H](C(=O)N1C[C@@H](Oc2cccc(OCCCCCCOCCCCCCOCCCCCCNc3cccc4c3C(=O)N(C3CCC(=O)NC3=O)C4=O)c2)C[C@H]1C(=O)N[C@@H]1CCCc2ccccc21)C1CCCCC1 (stereo partly shown) displays chromatographic logD of 7.2

According to the records, this compound CN[C@@H](C)C(=O)N[C@H](C(=O)N1C[C@@H](Oc2cccc(OCCCCC(=O)N[C@H](C(=O)N3C[C@@H](O)C[C@H]3C(=O)NCc3ccc(-c4scnc4C)cc3)C(C)(C)C)c2)C[C@H]1C(=O)N[C@@H]1CCCc2ccccc21)C1CCCCC1 displays chromatographic logD of 3.3

According to the records, this compound CN[C@@H](C)C(=O)N[C@H](C(=O)N1C[C@@H](Oc2cccc(OCCCCCCOCCCCCCOCCCCCCOc3cc(-c4scnc4C)ccc3CNC(=O)[C@@H]3C[C@@H](O)CN3C(=O)[C@H](C(C)C)N3Cc4ccccc4C3=O)c2)C[C@H]1C(=O)N[C@@H]1CCCc2ccccc21)C1CCCCC1 displays chromatographic logD of 6.3

====

Give fraction unbound at 0.5 mg/mL for every item shown.
- testSystem: plasma protein (HSA column) (Homo sapiens, UniProt P02768)
- Construct: purchased
- Sequence (P02768 25-609): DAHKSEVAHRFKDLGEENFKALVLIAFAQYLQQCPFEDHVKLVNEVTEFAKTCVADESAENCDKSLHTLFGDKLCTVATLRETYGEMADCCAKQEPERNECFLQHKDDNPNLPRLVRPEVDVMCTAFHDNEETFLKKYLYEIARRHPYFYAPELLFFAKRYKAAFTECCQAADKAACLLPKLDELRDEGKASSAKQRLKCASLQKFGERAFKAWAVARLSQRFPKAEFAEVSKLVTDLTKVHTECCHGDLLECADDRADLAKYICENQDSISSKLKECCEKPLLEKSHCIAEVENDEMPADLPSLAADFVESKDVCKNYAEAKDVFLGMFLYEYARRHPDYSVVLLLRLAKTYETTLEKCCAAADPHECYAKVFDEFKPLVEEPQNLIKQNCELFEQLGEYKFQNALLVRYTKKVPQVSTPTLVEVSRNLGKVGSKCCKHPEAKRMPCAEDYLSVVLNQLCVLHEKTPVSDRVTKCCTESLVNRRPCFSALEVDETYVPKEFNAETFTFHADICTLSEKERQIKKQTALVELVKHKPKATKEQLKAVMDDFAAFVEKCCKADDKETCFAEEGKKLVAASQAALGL
- runDescription: Plasma protein binding estimated by HPLC on a […] HSA column
- Format: in vitro ADME
- conditionParameters: CHIRALPAK HSA column (50 × 3 mm, 5 μm), estimated by an HPLC-based method, read-out: PPB (plasma protein binding) (converted)
Form rule: numeric answer, no unit written next to it.

According to the records, this compound CN[C@@H](C)C(=O)N[C@H](C(=O)N1C[C@@H](Oc2cccc(OCCCCOCCCCNc3cccc4c3C(=O)N(C3CCC(=O)NC3=O)C4=O)c2)C[C@H]1C(=O)N[C@@H]1CCCc2ccccc21)C1CCCCC1 (stereo partly shown) displays fraction unbound at 0.5 mg/mL of 0.04

According to the records, this compound CN[C@@H](C)C(=O)N[C@H](C(=O)N1C[C@@H](Oc2cccc(OCCOCCOCCNc3cccc4c3C(=O)N(C3CCC(=O)NC3=O)C4=O)c2)C[C@H]1C(=O)N[C@@H]1CCCc2ccccc21)C1CCCCC1 (stereo partly shown) displays fraction unbound at 0.5 mg/mL of 0.05

According to the records, this compound CN[C@@H](C)C(=O)N[C@H](C(=O)N1C[C@@H](Oc2cccc(OCCCCCNc3cccc4c3C(=O)N(C3CCC(=O)NC3=O)C4=O)c2)C[C@H]1C(=O)N[C@@H]1CCCc2ccccc21)C1CCCCC1 (stereo partly shown) displays fraction unbound at 0.5 mg/mL of 0.04

According to the records, this compound CN[C@@H](C)C(=O)N[C@H](C(=O)N1C[C@@H](Oc2cccc(OCCCCCCCCOc3cc(-c4scnc4C)ccc3CNC(=O)[C@@H]3C[C@@H](O)CN3C(=O)[C@H](C(C)C)N3Cc4ccccc4C3=O)c2)C[C@H]1C(=O)N[C@@H]1CCCc2ccccc21)C1CCCCC1 displays fraction unbound at 0.5 mg/mL of 0.03

====

- testSystem: UniProt:P40337
- runDescription: Immunoblotting (western blot) quantification of VHL30 levels in MM.1S cells
- conditionParameters: MM1.S, 16 h, read-out: %remaining protein VHL30, MM.1S cells, 16 h treatment at 0.1 μM, normalized to loading control and DMSO
Under this convention, fulfilled denotes remaining activity at 0.1 µM strictly below 40% and not fulfilled denotes remaining activity at 0.1 µM at or above 40%.

Is 40% strictly greater than the compound's reported remaining activity at 0.1 µM? compound: CN[C@@H](C)C(=O)N[C@H](C(=O)N1C[C@@H](Oc2cccc(OCCCCC(=O)N[C@H](C(=O)N3C[C@H](O)C[C@H]3C(=O)N[C@@H](C)c3ccc(-c4scnc4C)cc3)C(C)(C)C)c2)C[C@H]1C(=O)N[C@@H]1CCCc2ccccc21)C1CCCCC1
fulfilled

Is 40% strictly greater than the compound's reported remaining activity at 0.1 µM? compound: CN[C@@H](C)C(=O)N[C@H](C(=O)N1C[C@@H](Oc2cccc(OCCOCCOCCOCC(=O)N[C@H](C(=O)N3C[C@H](O)C[C@H]3C(=O)NCc3ccc(-c4scnc4C)cc3)C(C)(C)C)c2)C[C@H]1C(=O)N[C@@H]1CCCc2ccccc21)C1CCCCC1
fulfilled

Is 40% strictly greater than the compound's reported remaining activity at 0.1 µM? compound: CN[C@@H](C)C(=O)N[C@H](C(=O)N1C[C@@H](Oc2ccccc2)C[C@H]1C(=O)N[C@@H]1CCCc2ccccc21)C1CCCCC1 [CST530, reference compound]
not fulfilled

Is 40% strictly greater than the compound's reported remaining activity at 0.1 µM? compound: CN[C@@H](C)C(=O)N[C@H](C(=O)N1C[C@@H](Oc2cccc(OCCCCC(=O)N[C@H](C(=O)N3C[C@H](O)C[C@H]3C(=O)NCc3ccc(-c4scnc4C)cc3)C(C)(C)C)c2)C[C@H]1C(=O)N[C@@H]1CCCc2ccccc21)C1CCCCC1
fulfilled

Is 40% strictly greater than the compound's reported remaining activity at 0.1 µM? compound: Cc1ncsc1-c1ccc([C@H](C)NC(=O)[C@@H]2C[C@@H](O)CN2C(=O)[C@@H](NC(=O)CCCCOc2cccc(O[C@H]3C[C@@H](C(=O)N[C@@H]4CCCc5ccccc54)N(C(=O)[C@@H](NC(=O)[C@H](C)N(C)C(=O)OC(C)(C)C)C4CCCCC4)C3)c2)C(C)(C)C)cc1 [PROTAC 10d]
not fulfilled

Is 40% strictly greater than the compound's reported remaining activity at 0.1 µM? compound: CN[C@@H](C)C(=O)N[C@H](C(=O)N1C[C@@H](Oc2cccc(OCCOCCOCC(=O)N[C@H](C(=O)N3C[C@H](O)C[C@H]3C(=O)NCc3ccc(-c4scnc4C)cc3)C(C)(C)C)c2)C[C@H]1C(=O)N[C@@H]1CCCc2ccccc21)C1CCCCC1
not fulfilled

Is 40% strictly greater than the compound's reported remaining activity at 0.1 µM? compound: CC(=O)N(C)[C@@H](C)C(=O)N[C@H](C(=O)N1C[C@@H](Oc2cccc(OCCCCC(=O)N[C@H](C(=O)N3C[C@H](O)C[C@H]3C(=O)N[C@@H](C)c3ccc(-c4scnc4C)cc3)C(C)(C)C)c2)C[C@H]1C(=O)N[C@@H]1CCCc2ccccc21)C1CCCCC1 [PROTAC 10c]
not fulfilled

Is 40% strictly greater than the compound's reported remaining activity at 0.1 µM? compound: CN[C@@H](C)C(=O)N[C@H](C(=O)N1C[C@@H](Oc2cccc(OCCCCCCOCCCCCCOCCCCCC(=O)N[C@H](C(=O)N3C[C@H](O)C[C@H]3C(=O)NCc3ccc(-c4scnc4C)cc3)C(C)(C)C)c2)C[C@H]1C(=O)N[C@@H]1CCCc2ccccc21)C1CCCCC1
not fulfilled
